biological target: PKR R510Q (Homo sapiens, UniProt P30613, R510Q); assay: PKR Mutant Assay, dose response (AC50), PKR R510Q; assay type: biochemical; conditions: PKR R510Q mutant enzyme
Sequence (P30613 whole entry R510Q): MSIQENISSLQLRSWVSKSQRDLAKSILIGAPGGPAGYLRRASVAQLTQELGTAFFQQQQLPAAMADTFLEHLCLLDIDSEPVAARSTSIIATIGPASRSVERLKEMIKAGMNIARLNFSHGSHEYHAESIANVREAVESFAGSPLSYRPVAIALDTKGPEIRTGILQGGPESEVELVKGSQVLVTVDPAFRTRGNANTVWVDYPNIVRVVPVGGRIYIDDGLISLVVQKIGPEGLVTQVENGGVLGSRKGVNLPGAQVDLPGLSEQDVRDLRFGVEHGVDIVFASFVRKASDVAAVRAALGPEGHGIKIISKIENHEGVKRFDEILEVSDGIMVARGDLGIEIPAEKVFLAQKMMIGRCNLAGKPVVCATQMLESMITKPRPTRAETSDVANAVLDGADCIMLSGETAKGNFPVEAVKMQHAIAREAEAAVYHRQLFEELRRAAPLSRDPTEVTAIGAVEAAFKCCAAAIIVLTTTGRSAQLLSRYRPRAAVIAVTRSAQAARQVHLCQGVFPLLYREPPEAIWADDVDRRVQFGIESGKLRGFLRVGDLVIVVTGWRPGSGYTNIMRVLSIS
recorded_metric: AC50

Recorded AC50, per entry:
compound: CC(C)CC1(O)CCN(C(=O)c2ccc(NS(=O)(=O)c3cccc4ncc(O)nc34)cc2)CC1 [Compound 460]
AC50: > 10 µM
--
compound: CS(=O)(=O)CC1(O)CCN(C(=O)c2ccc(NS(=O)(=O)c3cccc4scnc34)cc2)CC1 [Compound 472]
AC50: 1.01 to 10 µM

Query: # lookup: AC50 of CC(C)CC1(OC(=O)OCOP(=O)(O)O)CCN(C(=O)c2ccc(NS(=O)(=O)c3cccc4nccnc34)cc2)CC1 [Compound 527]
Response: 0.101 to 1 µM

---

biological target: PKR R532W (Homo sapiens, UniProt P30613, R532W); assay: PKR Mutant Assay, dose response (AC50), PKR R532W; type: biochemical; conditions: PKR R532W mutant enzyme
Sequence (P30613 whole entry R532W): as the sequence (P30613 whole entry R510Q) above, with Q510R, R532W counted along it
recorded_metric: AC50

Recorded AC50, per entry:
molecule: Cc1n[nH]c(C)c1CC1(O)CCN(C(=O)c2ccc(NS(=O)(=O)c3cccc4nccnc34)cc2)CC1 [Compound 512]
AC50: < 100 nM
--
molecule: O=C(c1ccc(NS(=O)(=O)c2cccc3nccnc23)cc1)N1CCC(O)(Cc2cn[nH]c2)CC1 [Compound 499]
AC50: < 100 nM
--
molecule: CCS(=O)(=O)CC1(O)CCN(C(=O)c2ccc(NS(=O)(=O)c3cccc4nccnc34)cc2)CC1 [Compound 490]
AC50: 1010 to 10000 nM
--
molecule: CCS(=O)(=O)CC1(O)CCN(C(=O)c2ccc(NS(=O)(=O)c3cccc4scnc34)cc2)CC1 [Compound 484]
AC50: 1010 to 10000 nM

Query: # lookup: AC50 of CC(F)(F)CCC1(O)CCN(C(=O)c2ccc(NS(=O)(=O)c3cc(F)cc4sc(N)nc34)cc2F)CC1 [Compound 483]
Response: 101 to 1000 nM

Query: # lookup: AC50 of Cn1ccc(C2(O)CCN(C(=O)c3ccc(NS(=O)(=O)c4cccc5scnc45)cc3)CC2)n1 [Compound 450]
Response: > 10000 nM

---

The compounds listed here are annotated with their AC50.
target: PKR R510Q (Homo sapiens, UniProt P30613, R510Q); test: PKR Mutant Assay, dose response (AC50), PKR R510Q; assay type: biochemical; conditions: PKR R510Q mutant enzyme

Recorded AC50, per entry:
item_smiles: CC(F)(F)CCC1(O)CCN(C(=O)c2ccc(NS(=O)(=O)c3cccc4nccnc34)cc2C#N)CC1
AC50: 0.101 to 1 µM

item_smiles: O=C(c1ccc(NS(=O)(=O)c2cccc3nccnc23)cc1)N1CCC(O)(Cc2c(O)n[nH]c2C(F)(F)F)CC1
AC50: 1.01 to 10 µM

item_smiles: O=C(c1ccc(NS(=O)(=O)c2cccc3scnc23)cc1)N1CCC(O)(c2ccns2)CC1
AC50: 0.101 to 1 µM

item_smiles: O=C(c1ccc(NS(=O)(=O)c2cccc3scnc23)cc1)N1CCC(O)(Cc2cn[nH]c2)CC1
AC50: 0.101 to 1 µM

Query: # lookup: AC50 of "Cc1n[nH]c(C)c1CC1(O)CCN(C(=O)c2ccc(NS(=O)(=O)c3cccc4nccnc34)cc2)CC1"
Response: 0.101 to 1 µM

Query: # lookup: AC50 of "O=C(c1ccc(NS(=O)(=O)c2cccc3scnc23)cc1)N1CCC(O)(c2scnc2Cl)CC1"
Response: 0.101 to 1 µM
